- measurementProtocol: A CellTox Green Cytotoxicity Assay to monitor cytotoxicity in HEK293 cells - 0 hour (AID 1224869); note: nearly all actives have a fitted effect of over 50% in size
- measurementParameters: CellTox Green fluorescence; series mostly up to 76.8 µM
- Source text: National Center for Advancing Translational Sciences [NCATS] NIH Chemical Genomics Center [NCGC] U.S. Environmental Protection Agency [EPA] National Institutes of Environmental Health Sciences [NIEHS] National Toxicology Program [NTP] Cell-based models are critical for drug discovery. […] Viable cells produce no appreciable increases in fluorescence. Therefore, the fluorescence signal produced by the binding interaction with dead cell DNA is proportional to cytotoxicity. […]
The source made the active and inactive calls. Calls come from the whole dose curve; as a rule, active = well fitted activation curve with a large enough effect in the repeat runs; inconclusive = weak or mixed curves; inactive = flat fitted curve, though single readings scatter.
experimentalReadout: outcome

Some molecules with known outcome results, for comparison:
- CCC1(c2ccccc2)C(=O)N=C(O)NC1=O (stereo not given): inactive
- NC(=S)C(N)=S: inactive
- Nc1cnn(-c2ccccc2)c(=O)c1Cl: inactive
- C=CC1CC=CCC1 (stereo not given): inactive

Okay, now this molecule:
Challenge: So what does the record say about outcome for C[C@@H]1CN(C2CCC(C#N)(c3ccc(F)cc3)CC2)CC[C@]1(C(=O)O)c1ccccc1 (stereo not given in full) ?
Response given: inactive
